Listed below: GI50 values for each entry.
system: OVCAR-3; assay: NCI tumour cell line growth inhibition, 48 h
The source made the active and inactive calls. Cut-off read from the data, not from the text of the source: active = GI50 up to about 1.1 µM and inactive = higher.
measured property: GI50

>>> test_result("CCOC(=O)Cc1csc2[n+]1C(=O)/C(=C\\c1cccc(Cl)c1Cl)S2")
"7.05 µM (inactive)"
>>> test_result("C=C1C(O)CC[C@]2(C)C1C1OC(C)(C)O[C@]13CC(=O)C(C)=C([C@H]1OC(C)(C)OC12)C3(C)C (stereo partly specified)")
"> 100 µM (inactive)"
>>> test_result("O=Cc1cn(C(=O)c2ccccc2)c2ccccc12")
"> 100 µM (inactive)"
>>> test_result("O=C(/C=C/c1ccc2c(c1)OCO2)Cc1nc2ncccc2[nH]c1=O")
"> 100 µM (inactive)"
>>> test_result("O=C1c2c(ccc3c2CCCC3)CC12Cc1ccccc1C2")
"9.93 µM (inactive)"
>>> test_result("CN1Cc2cc(O)c(O)cc2C(O)C1 (stereo unspecified)")
"> 100 µM (inactive)"
>>> test_result("N#Cc1ccc(OCc2nc3cc(C(F)(F)F)ccc3nc2-c2ccccc2)cc1")
"> 100 µM (inactive)"
>>> test_result("O=[N+]([O-])c1cccc(-c2oc(/C=N/c3ccccc3)c([N+](=O)[O-])c2-c2cccc([N+](=O)[O-])c2)c1")
"> 100 µM (inactive)"
>>> test_result("O=c1[nH]n(Cc2ccccc2)c2ccc([N+](=O)[O-])cc12")
"> 100 µM (inactive)"
>>> test_result("CC1(C)C2CCC1(CS(=O)(=O)Nc1ccccc1)C(=O)C2 (stereo unspecified)")
"> 100 µM (inactive)"
>>> test_result("Brc1ccc2c3c1[C@@H]1O[C@@H]1c1cccc(c1-3)[C@@H]1O[C@H]21")
"19.9 µM (inactive)"
>>> test_result("O=P1(O)c2ccccc2Nc2cc(C(F)(F)F)ccc21")
"> 100 µM (inactive)"
>>> test_result("COc1cc(S(=O)(=O)Nc2ccc(-c3csc(/N=C\\c4ccccc4)n3)cc2)ccc1Cl")
"56.9 µM (inactive)"
>>> test_result("CCCCC(C(=O)N/N=C/c1ccc([N+](=O)[O-])o1)C(=O)N/N=C/c1ccc([N+](=O)[O-])o1")
"2.32 µM (inactive)"
>>> test_result("COc1cccc(-n2nnc3c(N)nc(N)nc32)c1")
"> 100 µM (inactive)"
>>> test_result("COC(=O)C1Cc2ccc(C)cc2C1=O (stereo unspecified)")
"> 100 µM (inactive)"
>>> test_result("CCOC(OC1=C(C#N)CCCC1)C(CC)[Se]c1ccccc1[N+](=O)[O-] (stereo unspecified)")
"26.5 µM (inactive)"
>>> test_result("Cc1nc2ccc(NCCN(C)C)c3c(=O)c4ccccc4n1c23")
"5 µM (inactive)"
>>> test_result("CN1CCCC(OC(=O)c2cc3cc(CCl)ccc3oc2=O)C1 (stereo unspecified)")
"14.2 µM (inactive)"
>>> test_result("C/C(=N\\N(C)C)c1sc(-n2nc(-c3ccccc3)cc2-c2ccccc2)nc1C")
"47.9 µM (inactive)"
>>> test_result("Cc1cccc(C2NC(=O)c3ccccc3N2)c1 (stereo unspecified)")
"3.22 µM (inactive)"
>>> test_result("CC(C)(C)OC(=O)NC1CCCC1C(O)(C1=CCCC1)C1=CCCC1 (stereo unspecified)")
"> 100 µM (inactive)"
>>> test_result("Cn1c2ccccc2c(=O)c2ccc(Cl)cc21")
"> 10 µM (inactive)"
>>> test_result("CCCCCCCCCOC(=S)NC")
"19.9 µM (inactive)"
>>> test_result("CC1=C(C(=O)NCc2ccccc2)C(c2ccccc2[N+](=O)[O-])C(C(=O)NCc2ccccc2)=C(C)N1")
"5.31 µM (inactive)"
>>> test_result("CN(CCCNCc1ccccn1)Cc1ccccc1O")
"24.9 µM (inactive)"
>>> test_result("Cc1ccc(-n2c(=O)c3nn4c(=O)n(-c5ccc(C)cc5)c(=O)c4nn3c2=O)cc1")
"> 100 µM (inactive)"
>>> test_result("CSc1cc(N)ccc1/N=N/c1ccc(S(N)(=O)=O)cc1")
"25.1 µM (inactive)"
>>> test_result("Cc1ccc(S(=O)(=O)NC(=O)NCCc2c[nH]cn2)cc1")
"> 100 µM (inactive)"
>>> test_result("CC(C)(C)NC(=O)[C@H]1CC[C@H]2[C@@H]3CC=C4NC(=O)CC[C@]4(C)[C@H]3CC[C@]12C")
"> 100 µM (inactive)"
>>> test_result("CC(C)(C)c1ccc2c(c1)S(=O)(=O)Nc1cccc(c1)NS(=O)(=O)c1cc(C(C)(C)C)ccc1OCCOCCO2")
"> 100 µM (inactive)"
